Quick list: EC50 per entry.
- study system: hGPR120 (Homo sapiens)
- Construct: expressed in transfected cells; host or cells: CHO-K1
- assay remarks: Measurement of activity of GPR120 agonist (cell-based calcium fluorescence assay)
- condition: CHO-K1 cells expressing Ga16 and hGPR120, Calcium 5 dye fluorescence; activity class; read-out: EC50
metric: EC50

INSERT INTO results (molecule, metric, value_reported) VALUES
  ('Cc1cnc(OC2CCCC2)c(-c2cc(F)c(OCCCC(=O)O)c(F)c2)c1', 'EC50', '< 200 nM'),
  ('O=C(O)CCCSc1ccc(-c2cccnc2OCC2CCC2)cc1F', 'EC50', '< 200 nM'),
  ('O=C(O)CCCOc1c(F)cc(-c2cccnc2OC2CCC(O)C2)cc1F (stereo not drawn)', 'EC50', '2000 to 20000 nM'),
  ('O=C(O)CCCCCSc1c(F)cc(-c2cccnc2OC2CCCC2)cc1F', 'EC50', '200 to 2000 nM'),
  ('O=C(O)CCCCSc1ccc(-c2cccnc2OC2CCCC2)cc1', 'EC50', '< 200 nM'),
  ('O=C(O)CCCOc1c(F)cc(-c2cccnc2NCC2CCOCC2)cc1F', 'EC50', '> 20000 nM'),
  ('O=C(O)CCCOc1c(F)cc(-c2cccc(NCC3CC3)n2)cc1F', 'EC50', '200 to 2000 nM'),
  ('O=C(O)CCCOc1c(F)cc(-c2cccc(CC3CCCC3)n2)cc1F', 'EC50', '< 200 nM'),
  ('O=C(O)CCCSc1ccc(-c2ccccc2NC2CCCC2)cc1', 'EC50', '< 200 nM');

* * *

Quick list: EC50 per entry.
- study system: hGPR120 (Homo sapiens, UniProt Q5NUL3)
- Construct: expressed in transfected cells; host or cells: CHO-K1
- Sequence (Q5NUL3 1-361): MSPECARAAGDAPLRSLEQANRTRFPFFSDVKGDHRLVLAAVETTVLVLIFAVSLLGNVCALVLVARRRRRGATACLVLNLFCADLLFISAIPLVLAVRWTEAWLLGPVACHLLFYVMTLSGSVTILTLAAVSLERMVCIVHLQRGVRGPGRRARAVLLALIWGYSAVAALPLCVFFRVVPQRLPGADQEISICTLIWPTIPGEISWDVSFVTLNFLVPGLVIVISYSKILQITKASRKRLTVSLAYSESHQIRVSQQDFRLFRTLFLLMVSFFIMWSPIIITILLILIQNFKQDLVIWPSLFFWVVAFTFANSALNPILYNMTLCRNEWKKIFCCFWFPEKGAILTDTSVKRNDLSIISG
- assay remarks: Measurement of activity of GPR120 agonist (cell-based calcium fluorescence assay)
- condition: CHO-K1 cells expressing Ga16 and hGPR120, Calcium 5 dye fluorescence; activity class; read-out: EC50
metric: EC50

INSERT INTO measurements (molecule, study_system, metric, value_reported) VALUES
  ('CCCSc1cccc(-c2cc(F)c(SCCCC(=O)O)c(F)c2)n1', 'hGPR120 (Homo sapiens, UniProt Q5NUL3)', 'EC50', '< 0.2 µM'),
  ('O=C(O)CCCOc1c(F)cc(-c2ccccc2OC2CCC2)cc1F', 'hGPR120 (Homo sapiens, UniProt Q5NUL3)', 'EC50', '< 0.2 µM'),
  ('CC(CCC(=O)O)Sc1ccc(-c2cccnc2OC2CCCC2)cc1 (stereo not drawn)', 'hGPR120 (Homo sapiens, UniProt Q5NUL3)', 'EC50', '< 0.2 µM'),
  ('CC(C)Nc1ccccc1-c1ccc(OCCCC(=O)O)cc1', 'hGPR120 (Homo sapiens, UniProt Q5NUL3)', 'EC50', '0.2 to 2 µM'),
  ('O=C(O)CCCOc1c(F)cc(-c2cccc(Oc3ccccc3)n2)cc1F', 'hGPR120 (Homo sapiens, UniProt Q5NUL3)', 'EC50', '< 0.2 µM'),
  ('O=C(O)CCCCCOc1c(F)cc(-c2cccnc2OC2CCC2)cc1F', 'hGPR120 (Homo sapiens, UniProt Q5NUL3)', 'EC50', '0.2 to 2 µM'),
  ('CCCOc1c(F)cc(C)cc1-c1ccc(SCCCC(=O)O)c(F)c1', 'hGPR120 (Homo sapiens, UniProt Q5NUL3)', 'EC50', '< 0.2 µM'),
  ('CC(C)Sc1cccc(-c2cc(F)c(OCCCC(=O)O)c(F)c2)n1', 'hGPR120 (Homo sapiens, UniProt Q5NUL3)', 'EC50', '< 0.2 µM'),
  ('O=C(O)CCCOc1c(F)cc(-c2cccc(N3CCCC3)c2)cc1F', 'hGPR120 (Homo sapiens, UniProt Q5NUL3)', 'EC50', '< 0.2 µM');

* * *

Quick list: EC50 per entry.
- study system: hGPR120 (Homo sapiens)
- Construct: expressed in transfected cells; host or cells: CHO-K1
- Sequence (Q5NUL3 1-361): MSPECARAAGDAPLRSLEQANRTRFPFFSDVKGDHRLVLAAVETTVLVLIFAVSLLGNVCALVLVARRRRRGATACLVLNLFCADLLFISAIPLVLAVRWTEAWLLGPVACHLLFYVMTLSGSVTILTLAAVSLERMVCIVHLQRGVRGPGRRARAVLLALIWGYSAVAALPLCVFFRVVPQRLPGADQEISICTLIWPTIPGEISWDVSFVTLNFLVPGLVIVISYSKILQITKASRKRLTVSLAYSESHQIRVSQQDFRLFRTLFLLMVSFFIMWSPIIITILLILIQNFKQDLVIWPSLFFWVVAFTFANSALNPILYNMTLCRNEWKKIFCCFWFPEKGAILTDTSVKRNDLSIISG
- assay remarks: Measurement of activity of GPR120 agonist (cell-based calcium fluorescence assay)
- condition: CHO-K1 cells expressing Ga16 and hGPR120, Calcium 5 dye fluorescence; activity class; read-out: EC50
metric: EC50

INSERT INTO measurements (record_smiles, value_reported) VALUES
  ('O=C(O)CCCOc1ccc(-c2cccc(OC3CCCC3)c2)nc1', '200 to 2000 nM'),
  ('O=C(O)CCCCOc1c(F)cc(-c2cccnc2OC2CC2)cc1F', '200 to 2000 nM'),
  ('CC(C)Nc1ncccc1-c1ccc(SCCCC(=O)O)c(F)c1', '200 to 2000 nM'),
  ('O=C(O)CCCSc1ccc(-c2cccc(SC3CCC3)n2)cc1F', '< 200 nM'),
  ('O=C(O)CCCOc1c(F)cc(-c2cccc(SC3CCC3)n2)cc1F', '< 200 nM'),
  ('O=C(O)CCCSc1ccc(-c2cccc(SC3CCCC3)n2)cc1', '200 to 2000 nM'),
  ('O=C(O)CCCOc1c(F)cc(-c2cccnc2OC2CCOCC2)cc1F', '200 to 2000 nM'),
  ('CC(C)Sc1cccc(-c2cc(F)c(OCCCCC(=O)O)c(F)c2)n1', '< 200 nM'),
  ('CC(C)Oc1ncccc1-c1cc(F)c(SCCCCC(=O)O)c(F)c1', '200 to 2000 nM');

* * *

- study system: hGPR120 (Homo sapiens, UniProt Q5NUL3)
- Construct: expressed in transfected cells; host or cells: CHO-K1
- Sequence (Q5NUL3 1-361): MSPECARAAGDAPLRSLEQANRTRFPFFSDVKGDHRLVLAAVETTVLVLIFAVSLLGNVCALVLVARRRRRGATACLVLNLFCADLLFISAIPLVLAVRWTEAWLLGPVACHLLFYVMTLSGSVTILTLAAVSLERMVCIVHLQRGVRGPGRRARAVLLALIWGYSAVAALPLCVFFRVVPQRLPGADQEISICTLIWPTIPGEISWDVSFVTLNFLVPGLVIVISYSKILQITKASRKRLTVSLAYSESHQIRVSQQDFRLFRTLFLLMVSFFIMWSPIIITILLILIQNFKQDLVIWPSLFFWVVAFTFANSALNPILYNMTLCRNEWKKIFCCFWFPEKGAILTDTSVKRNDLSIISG
- assay remarks: Measurement of activity of GPR120 agonist (cell-based calcium fluorescence assay)
pEC50: −log10 of the molar value.
metric: pEC50

INSERT INTO assay_data (molecule, value_reported) VALUES
  ('CC(C)Nc1ccccc1-c1cc(F)c(OCCCC(=O)O)c(F)c1 [Example 83]', '5.70 to 6.70');

* * *

Quick list: EC50 per entry.
- study system: hGPR120 (Homo sapiens)
- Construct: expressed in transfected cells; host or cells: CHO-K1
- assay remarks: Measurement of activity of GPR120 agonist (cell-based calcium fluorescence assay)
- condition: CHO-K1 cells expressing Ga16 and hGPR120, Calcium 5 dye fluorescence; activity class; read-out: EC50
- Method: CHO-K1 cells expressing Ga16 and hGPR120 were dispensed into each well of a 96-well plate (3×10^4 cells/100 μl/well) and then incubated in 5% CO2, 37° C. incubator for 18 hours. […] Fluorescence increased by the serially diluted GPR120 agonists is calculated as a relative percent (%) value based on the fluorescence represented by the treatment of 1% DMSO only. […]
metric: EC50

INSERT INTO assay_data (record_smiles, study_system, value_reported) VALUES
  ('O=C(O)CCCOc1c(F)cc(-c2cccnc2CC2CCCC2)cc1F', 'hGPR120 (Homo sapiens)', '< 200 nM'),
  ('O=C(O)CCCSc1c(F)cc(-c2cccnc2SC2CCC2)cc1F', 'hGPR120 (Homo sapiens)', '< 200 nM'),
  ('CCCSc1ncccc1-c1cc(F)c(SCCCCC(=O)O)c(F)c1', 'hGPR120 (Homo sapiens)', '< 200 nM'),
  ('CCCCSc1ncccc1-c1cc(F)c(OCCCC(=O)O)c(F)c1', 'hGPR120 (Homo sapiens)', '< 200 nM'),
  ('O=C(O)CCCSc1c(F)cc(-c2cccnc2OC2CCC2)cc1F', 'hGPR120 (Homo sapiens)', '< 200 nM'),
  ('O=C(O)CCCCOc1ccc(-c2cccnc2SC2CCC2)cc1F', 'hGPR120 (Homo sapiens)', '< 200 nM'),
  ('O=C(O)CCCCOc1c(F)cc(-c2cccnc2OC2CCC2)cc1F', 'hGPR120 (Homo sapiens)', '< 200 nM'),
  ('O=C(O)CCCSc1ccc(-c2cccc(OC3CCCC3)n2)cc1', 'hGPR120 (Homo sapiens)', '200 to 2000 nM'),
  ('O=C(O)CCCCCCOc1c(F)cc(-c2cccnc2OC2CCCC2)cc1F', 'hGPR120 (Homo sapiens)', '2000 to 20000 nM');
